System: IFNα-stimulated Kit225 T cells with STAT-dependent luciferase reporter
Assay: Kit225 T cell assay, STAT-dependent luciferase reporter, IFNα stimulated
Assay type: cell-based, human
Conditions: 200 U/mL human recombinant IFNα, 5-6 hours, read-out: IFNa Kit225 Reporter, LE (IC50)
Measurement Label: IC50 (nM)

INSERT INTO measurements (compound, measurement_label, unit_abbrev, val) VALUES
  ('CNc1cc(Nc2cccn(-c3ccc(F)cc3)c2=O)nn2c(C(=O)NC3(C#N)CC3)cnc12 [Example 12]', 'IC50', 'nM', 100),
  ('CNc1cc(Nc2cccn(-c3ccn(C)n3)c2=O)nn2c(C(=O)NC(C)C)cnc12 [Example 108]', 'IC50', 'nM', 80),
  ('CNc1cc(Nc2cccn(-c3ccc(C)nn3)c2=O)nn2c(C(=O)NC3CCC3)cnc12 [Example 64]', 'IC50', 'nM', 30),
  ('CNc1cc(Nc2cccn(C)c2=O)nn2c(C(=O)Nc3ccccc3)cnc12 [Example 212]', 'IC50', 'nM', 2480);

---

Parameter: pIC50. Scope: all listed entries.
Test system: IFNα-stimulated Kit225 T cells with STAT-dependent luciferase reporter
Experiment: Kit225 T cell assay, STAT-dependent luciferase reporter, IFNα stimulated
Assay type: cell-based, human
Conditions: 200 U/mL human recombinant IFNα, 5-6 hours, read-out: IFNa Kit225 Reporter, LE (IC50)
pIC50: −log10 of the molar value.
Measurement Label: pIC50

INSERT INTO measurements (compound, measurement_label, val) VALUES
  ('CNc1cc(Nc2cncn(-c3ccc(C)nn3)c2=O)nn2c(C(=O)N[C@@H]3C[C@@H]3F)cnc12 [Example 80]', 'pIC50', 6.48),
  ('CNc1cc(Nc2cccn(-c3ccc(C(F)F)cc3)c2=O)nn2c(C(=O)NCC(C)(CO)CO)cnc12 [Example 19]', 'pIC50', 6.40),
  ('CNc1cc(Nc2cccn(-c3ccccc3)c2=O)nn2c(C(=O)NC3CC3)cnc12 [Example 119]', 'pIC50', 6.92),
  ('CNc1cc(Nc2cccn(-c3ccc(C)nn3)c2=O)nn2c(C(=O)NCCF)cnc12 [Example 102]', 'pIC50', 6.59),
  ('CNc1cc(Nc2cccn(C)c2=O)nn2c(C(=O)NC3CCC3)cnc12 [Example 68]', 'pIC50', 8.00),
  ('CNc1cc(Nc2cc(F)cn(C3CC3)c2=O)nn2c(C(=O)NC3(C#N)CC3)cnc12 [Example 51]', 'pIC50', 6.66),
  ('CNc1cc(Nc2cccn(C)c2=O)nn2c(C(=O)N[C@@H]3CCOC3)cnc12 [Example 57]', 'pIC50', 6.28),
  ('CNc1cc(Nc2cccn(-c3ccc(F)cc3)c2=O)nn2c(C(=O)NCC3(CO)CC3)cnc12 [Example 29]', 'pIC50', 6.70),
  ('CNc1cc(Nc2cccn(-c3ccn(C4CC4)n3)c2=O)nn2c(C(=O)NC3CC3)cnc12 [Example 165]', 'pIC50', 6.89),
  ('CNc1cc(Nc2cccn(-c3ccn(C4CC4)n3)c2=O)nn2c(C(=O)NC3CCC3)cnc12 [Example 166]', 'pIC50', 7.30),
  ('CNc1cc(Nc2cccn(-c3ncccn3)c2=O)nn2c(C(=O)NC3CCCC3)cnc12 [Example 170]', 'pIC50', 6.43),
  ('CNc1cc(Nc2cccn(-c3ncc(F)cn3)c2=O)nn2c(C(=O)N[C@@H]3C[C@@H]3F)cnc12 [Example 174]', 'pIC50', 7.40),
  ('CNc1cc(Nc2cccn(C)c2=O)nn2c(C(=O)N[C@@H]3C[C@@H]3F)cnc12 [Example 116]', 'pIC50', 7.30),
  ('CNc1cc(Nc2cccn(-c3ccc(C(C)O)cc3)c2=O)nn2c(C(=O)N[C@@H]3C[C@@H]3F)cnc12 (some centres unmarked) [Example 141]', 'pIC50', 6.74),
  ('CNc1cc(Nc2cccn(-c3cccc(F)c3)c2=O)nn2c(C(=O)NC3(C#N)CC3)cnc12 [Example 53]', 'pIC50', 7.10),
  ('CNc1cc(Nc2cccn(-c3cccc(C(C)(C)O)n3)c2=O)nn2c(C(=O)NC3CCC3)cnc12 [Example 77]', 'pIC50', 7.52),
  ('CNc1cc(Nc2ccnn(-c3cccc(C#N)c3)c2=O)nn2c(C(=O)N[C@@H]3C[C@@H]3F)cnc12 [Example 196]', 'pIC50', 7.40),
  ('CCC(C)NC(=O)c1cnc2c(NC)cc(Nc3cncn(-c4ccccn4)c3=O)nn12 (single isomer, unassigned) [Example 76]', 'pIC50', 6.25),
  ('CNc1cc(Nc2cccn(C(C)(C)C)c2=O)nn2c(C(=O)NC3(C#N)CC3)cnc12 [Example 219]', 'pIC50', 7.15),
  ('CNc1cc(Nc2cccn(-c3ccc(OC)nc3)c2=O)nn2c(C(=O)NC3CC3)cnc12 [Example 204]', 'pIC50', 7.00),
  ('CNc1cc(Nc2cc(F)cn(CC3CC3)c2=O)nn2c(C(=O)NC3(C#N)CC3)cnc12 [Example 16]', 'pIC50', 6.44),
  ('CNc1cc(Nc2cccn(-c3ccon3)c2=O)nn2c(C(=O)NC3CCC3)cnc12 [Example 56]', 'pIC50', 7.52),
  ('CNc1cc(Nc2cccn(C(C)(C)C)c2=O)nn2c(C(=O)NC3CC3)cnc12 [Example 218]', 'pIC50', 6.89),
  ('CNc1cc(Nc2cccn(-c3ccccn3)c2=O)nn2c(C(=O)NC3CCC(O)C3(C)C)cnc12 (centres unmarked) [Example 236]', 'pIC50', 6.46),
  ('CCNC(=O)c1cnc2c(NC)cc(Nc3cccn(-c4ccn(C)n4)c3=O)nn12 [Example 107]', 'pIC50', 6.57),
  ('CNc1ccc(-n2cccc(Nc3cc(NC)c4ncc(C(=O)NC5CC5)n4n3)c2=O)cn1 [Example 206]', 'pIC50', 6.42),
  ('CNc1cc(Nc2cccn(-c3ccc(C)nn3)c2=O)nn2c(C(=O)NCC(C)C)cnc12 [Example 200]', 'pIC50', 6.59),
  ('CNc1cc(Nc2cccn(-c3ccc(C)nn3)c2=O)nn2c(C(=O)NC(C)COC)cnc12 (centres unmarked) [Example 234]', 'pIC50', 6.85),
  ('CNc1cc(Nc2cccn(C3(C)CC3)c2=O)nn2c(C(=O)NC3CC3)cnc12 [Example 161]', 'pIC50', 6.47),
  ('CNc1cc(Nc2cc(Cl)cn(C)c2=O)nn2c(C(=O)NC3(C#N)CCC3)cnc12 [Example 43]', 'pIC50', 6.96),
  ('CNc1cc(Nc2cccn(C)c2=O)nn2c(C(=O)NC(C)(C)C#N)cnc12 [Example 130]', 'pIC50', 6.51),
  ('CNc1cc(Nc2cccn(C3CCC3)c2=O)nn2c(C(=O)NC3(C#N)CC3)cnc12 [Example 229]', 'pIC50', 6.74);

---

Tested on: IFNα-stimulated Kit225 T cells with STAT-dependent luciferase reporter
Test: Kit225 T cell assay, STAT-dependent luciferase reporter, IFNα stimulated
Format: cell-based, human
Settings: 200 U/mL human recombinant IFNα, 5-6 hours, read-out: IFNa Kit225 Reporter, LE (IC50)
Parameter: log10 of IC50. Scope: all listed entries.
Measurement Label: log10 of IC50 (log10 of the value in nM)

INSERT INTO results (compound, measurement_label, val) VALUES
  ('CNc1cc(Nc2cccn(-c3ccn(C)n3)c2=O)nn2c(C(=O)NC3CC3)cnc12 [Example 158]', 'log10 of IC50', 2.00),
  ('CNc1cc(Nc2cc(F)cn(-c3ccccn3)c2=O)nn2c(C(=O)N[C@@H]3C[C@@H]3F)cnc12 [Example 151]', 'log10 of IC50', 1.30),
  ('CNc1cc(Nc2cccn(C(C)C)c2=O)nn2c(C(=O)NC3(C#N)CC3)cnc12 [Example 216]', 'log10 of IC50', 2.64),
  ('CNc1cc(Nc2cccn(-c3cccc(C)n3)c2=O)nn2c(C(=O)NC3CC3)cnc12 [Example 46]', 'log10 of IC50', 2.20),
  ('CNc1cc(Nc2cncn(-c3ccc(C)nn3)c2=O)nn2c(C(=O)NC3CCC3)cnc12 [Example 78]', 'log10 of IC50', 2.26),
  ('CNc1cc(Nc2cccn(-c3ccc(F)nc3)c2=O)nn2c(C(=O)N[C@@H]3C[C@@H]3F)cnc12 [Example 40]', 'log10 of IC50', 1.70),
  ('CNc1cc(Nc2cc(F)cn(C)c2=O)nn2c(C(=O)NCC(C)(C)CO)cnc12 [Example 24]', 'log10 of IC50', 1.60),
  ('CNc1cc(Nc2cccn(-c3ccc(N4CCOCC4)cc3)c2=O)nn2c(C(=O)NC3CC3F)cnc12 (stereo not shown) [Example 147]', 'log10 of IC50', 1.30),
  ('CNc1cc(Nc2cccn(-c3ccccc3)c2=O)nn2c(C(=O)NC3(C#N)CCC3)cnc12 [Example 148]', 'log10 of IC50', 2.45),
  ('CNc1cc(Nc2cccn(-c3ccc(N4CCOCC4)cc3)c2=O)nn2c(C(=O)NC3CC3)cnc12 [Example 139]', 'log10 of IC50', 2.28),
  ('CNc1cc(Nc2cccn(-c3ccc(C4CC4)nn3)c2=O)nn2c(C(=O)N[C@@H]3C[C@@H]3F)cnc12 [Example 98]', 'log10 of IC50', 1.30),
  ('CNc1cc(Nc2cc(F)cn(C)c2=O)nn2c(C(=O)NCC3(CO)CC3)cnc12 [Example 30]', 'log10 of IC50', 2.30),
  ('CNc1cc(Nc2cccn(C)c2=O)nn2c(C(=O)NCC(C)(C)C)cnc12 [Example 207]', 'log10 of IC50', 2.41),
  ('CNc1cc(Nc2cccn(-c3cccnn3)c2=O)nn2c(C(=O)NCC(C)C)cnc12 [Example 112]', 'log10 of IC50', 2.72),
  ('CNc1cc(Nc2cccn(C3CCOC3)c2=O)nn2c(C(=O)NC3CC3)cnc12 (stereo not shown) [Example 220]', 'log10 of IC50', 2.45),
  ('CNc1cc(Nc2cccn(-c3cccc(C)n3)c2=O)nn2c(C(=O)NC3CCC3)cnc12 [Example 47]', 'log10 of IC50', 1.60);
